system: hTERT-HMEC; assay: percentage of EdU-negative (G0-arrested) nuclei per well, 72 h; higher = more G0 arrest; settings: protein concentration 0.0257143 µM; reference: sequence is the full UniProt precursor, the tested protein was the secreted form or ectodomain;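 further: secreted proteins added to cultured cells, EdU pulse at the end, nuclei found by Hoechst imaging, EdU status from nuclear versus surrounding ring intensity ratio, PBS as neutral control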
measurement.name: percentage of EdU-negative (%)
Respond numerically; units are % and should not be typed.

{"columns": ["sequence.string", "measurement.name", "measurement"],
 "data": [
  ["MPGPWLLLALALTLNLTGVPGGRAQPEAAQQEAVTAAEHPGLDDFLRQVERLLFLRENIQRLQGDQGEHSASQIFQSDWLSKRQHPGKREEEEEEGVEEEEEEEGGAVGPHKRQHPGRREDEASWSVDVTQHKRQHPGRRSPWLAYAVPKRQHPGRRLADPKAQRSWEEEEEEEEREEDLMPEKRQHPGKRALGGPCGPQGAYGQAGLLLGLLDDLSRSQGAEEKRQHPGRRAAWVREPLEE", "percentage of EdU-negative", 5.72],
  ["MGRDLRPGSRVLLLLLLLLLVYLTQPGNGNEGSVTGSCYCGKRISSDSPPSVQFMNRLRKHLRAYHRCLYYTRFQLLSWSVCGGNKDPWVQELMSCLDLKECGHAYSGIVAHQKHLLPTSPPISQASEGASSDIHTPAQMLLSTLQSTQRPTLPVGSLSSDKELTRPNETTIHTAGHSLAAGPEAGENQKQPEKNAGPTARTSATVPVLCLLAIIFILTAALSYVLCKRRRGQSPQSSPDLPVHYIPVAPDSNT [Q9H2A7]", "percentage of EdU-negative", 4.5],
  ["MRTQSLLLLGALLAVGSQLPAVFGRKKGEKSGGCPPDDGPCLLSVPDQCVEDSQCPLTRKCCYRACFRQCVPRVSVKLGSCPEDQLRCLSPMNHLCHKDSDCSGKKRCCHSACGRDCRDPARGTAPGCPGQANSDLGSVALHLSWGPTERVHDGRPGALPAGQHYLYQRWFQPSDNHWPADTSLQPIHPWFLLLGVKVHSLSSEEGLCITPVLCTTAIRASHPS [Q8TCV5]", "percentage of EdU-negative", 5.77]
]}

For the next question, use this sequence.
# input May I ask what percentage of EdU-negative has been recorded for MAPAMESPTLLCVALLFFAPDGVLAVPQKPKVSLNPPWNRIFKGENVTLTCNGNNFFEVSSTKWFHNGSLSEETNSSLNIVNAKFEDSGEYKCQHQQVNESEPVYLEVFSDWLLLQASAEVVMEGQPLFLRCHGWRNWDVYKVIYYKDGEALKYWYENHNISITNATVEDSGTYYCTGKVWQLDYESEPLNITVIKAPREKYWLQFFIPLLVVILFAVDTGLFISTQQQVTFLLKIKRTRKGFRLLNPHPKPNPKNN ?
# output 4.74
